Test system: CAKI-1 renal
procedure.text: NCI tumour cell line growth inhibition, 48 h
metric.name: TGI

Would you please look over these solved cases?
[[record]]
compound = "COc1ccc(/C=C2\\CN(C)Cc3c2nc(N)nc3-c2ccc(OC)cc2)cc1"
metric_name = "TGI"
test_value = "> 100 µM"

[[record]]
compound = "CN1C/C(=C\\c2cccs2)C2=NC(=S)NC(c3cccs3)C2C1 (stereo not given)"
metric_name = "TGI"
test_value = "> 100 µM"

[[record]]
compound = "C/C=C/[C@@]1(OC(=O)c2ccccc2)C[C@@H]2CCCC[C@@H]21"
metric_name = "TGI"
test_value = "31.4 µM"

[[record]]
compound = "C=C(Cn1c(=O)c2ccccc2c2ccccc21)c1ccc(C(=O)Nc2ccccc2N)cc1"
metric_name = "TGI"
test_value = "> 100 µM"

[[record]]
compound = "CCOC(=O)CCCn1nnc(C(=O)OCC)c1C(=O)OCC"
metric_name = "TGI"
test_value = "> 100 µM"


For each of the items listed, what is its TGI?
1. Nc1nc2c(=O)c3ccccc3sc2s1
2. C=C(CNC(=O)Nc1ccc(-c2ccccc2)cc1)c1ccc(C(=O)Nc2ccccc2N)cc1
3. CC(=O)NC1C(OCc2ccccc2)OC(CO)C(O)C1OCC(=O)NC(C)C(=O)NC(CCC(=O)NCCCCNc1ccc([N+](=O)[O-])c2[nH]c3ccccc3c(=O)c12)C(N)=O (stereo not given)
4. C=CCC1(O)c2ccccc2C(=O)c2c(O)ccc(O)c21 (stereo not given)
5. Nc1nc(CCC(=O)Nc2cccc(C(F)(F)F)c2)cc(-c2cccc3ccccc23)n1

1. 91.6 µM
2. > 100 µM
3. > 100 µM
4. 50.7 µM
5. > 100 µM

###

System: UO-31 renal
procedure.text: NCI tumour cell line growth inhibition, 48 h
metric.name: TGI

Would you please look over these solved cases?
[[record]]
molecule = "CC[P+](C)(Cc1ccccc1)c1ccccc1 (centres undefined)"
metric_name = "TGI"
test_value = "> 100 µM"

[[record]]
molecule = "COc1c2c(c3c(c1C1OC(C)[C@@H](C)O1)CC(C)(C)O3)C(=O)c1ccccc1C2=O (some centres undefined)"
metric_name = "TGI"
test_value = "> 100 µM"

[[record]]
molecule = "CC1=CC2CC(C)=C(CC[C@]3(C)CC[C@H]([C@@H](C)C(=O)O)OO3)C(C)(C)C2CC1 (some centres undefined)"
metric_name = "TGI"
test_value = "2.23 µM"

[[record]]
molecule = "NS(=O)(=O)c1ccc(NC(=O)c2ccc(NC3=C(Cl)C(=O)N(Cc4ccccc4)C3=O)cc2)cc1"
metric_name = "TGI"
test_value = "> 100 µM"

[[record]]
molecule = "CC1=CCC[C@@]2(C)C(CC[C@@H]2C(C)/C=C/C(C)C)c2ccc(cc2C(=O)O)C[C@@H](O)CC1 (some centres undefined)"
metric_name = "TGI"
test_value = "29.2 µM"


For each of the items listed, what is its TGI?
1. Clc1ccc(-c2ccc(-c3nnc(CCc4nnc(-c5ccc(-c6ccc(Cl)cc6)o5)o4)o3)o2)cc1
2. C=C(CNC(=O)Nc1ccc(-c2ccccc2)cc1)c1ccc(C(=O)Nc2ccccc2N)cc1
3. CC1=NN(C(=O)CSc2nnc(SCC(=O)N3N=C(C)CC3(O)c3ccccc3)s2)C(O)(c2ccccc2)C1 (centres undefined)
4. CCc1nn(CN2CCN(C)CC2)c(=S)n1/N=C\c1ccc(-c2ccc([N+](=O)[O-])cc2)o1

1: > 100 µM; 2: > 100 µM; 3: > 100 µM; 4: > 100 µM
